tested on: Staphylococcus aureus; experiment: Antibacterial activity against methicillin-resistant Staphylococcus aureus; type: functional
Test readout: MIC (µg/mL)
Lab book: enter the figure in µg/mL, no units written.

Below, each entry is followed by its recorded MIC result.
Compound	Units	Reported
CN[C@H](CC(C)C)C(=O)N[C@H]1C(=O)N[C@@H](CC(N)=O)C(=O)N[C@H]2C(=O)N[C@H]3C(=O)N[C@H](C(=O)N[C@H](C(=O)O)c4cc(O)cc(O)c4-c4cc3ccc4O)[C@H](O)c3ccc(c(Cl)c3)Oc3cc2cc(c3O[C@@H]2O[C@H](CO)[C@@H](O)[C@H](O)[C@H]2O[C@H]2C[C@](C)(N)[C@H](O)[C@H](C)O2)Oc2ccc(cc2Cl)[C@H]1O	µg/mL	1.56
C=C1C(=O)O[C@@H]2/C=C(\C)CC/C=C(\C)CC[C@@H]12 [COSTUNOLIDE]	µg/mL	200
C=C1C(=O)O[C@@H]2[C@H]3C(C)=CC[C@@H](O)[C@]3(C)CC[C@@H]12	µg/mL	800

Let us examine a further case.
Challenge: # lookup: MIC of C=C1CC[C@H]2C(=C)CC[C@H]3C(=C)C(=O)O[C@@H]3[C@@H]12 [DEHYDROCOSTUSLACTONE]
Response given: 800
